# TESTED_ON: T1, memapsin 2 (Homo sapiens, UniProt P56817)
# T1 construct: pET-11 vector-derived residues 1-15 of promemapsin 2-T1 (N, cleaved yes); made in house; host or cells: E. coli
# METHOD: Inhibition of memapsin 2 proteolytic activity, fluorogenic substrate FS-2
# Type: biochemical
# STATED_CONDITIONS: memapsin 2; apparent Ki in presence of substrate FS-2; read-out: Ki app
OBSERVED_PROPERTY: log10 of Ki (log10 of the value in µM)

>>> value_reported("CC(C)C[C@H](NC(=O)[C@H](CC(N)=O)NC(=O)OC(C)(C)C)[C@@H](O)C[C@@H](C)C(=O)N[C@H](C(=O)NCc1ccccc1)C(C)C [MMI-011]")
0.69
>>> value_reported("Cc1ccc(S(=O)(=O)N[C@@H](CC(C)C)C(=O)N[C@@H](CCS(C)(=O)=O)C(=O)N[C@@H](CC(C)C)[C@@H](O)C[C@@H](C)C(=O)N[C@H](C(=O)NCc2ccccc2)C(C)C)cc1 [MMI-090]")
-0.51
>>> value_reported("CSCC[C@H](NC(=O)[C@H](CC(C)C)NS(=O)(=O)c1ccc(C)cc1)C(=O)N[C@@H](CC(C)C)[C@@H](O)C[C@@H](C)C(=O)N[C@H](C(=O)NCc1ccccc1)C(C)C [MMI-089]")
-0.50
>>> value_reported("CSCC[C@H](NC(=O)[C@@H](NC(=O)OC(C)(C)C)C(C)C)C(=O)N[C@@H](CC(C)C)[C@@H](O)C[C@@H](C)C(=O)N[C@@H](CC(C)C)C(=O)NCCc1c[nH]c2ccccc12 [MMI-065]")
-1.16
>>> value_reported("CSCC[C@H](C[C@H](O)[C@H](CC(C)C)NC(=O)[C@H](CCSC)NC(=O)[C@H](CC(C)C)NC(=O)OC(C)(C)C)C(=O)N[C@H](C(=O)NCc1ccccc1)C(C)C [MMI-164]")
-1.89

* * *

# TESTED_ON: T1, memapsin 2 (Homo sapiens, UniProt P56817)
# T1 construct: pET-11 vector-derived residues 1-15 of promemapsin 2-T1 (N, cleaved yes); made in house; host or cells: E. coli
# METHOD: Inhibition of memapsin 2 proteolytic activity, fluorogenic substrate FS-2
# Type: biochemical
# STATED_CONDITIONS: memapsin 2; apparent Ki in presence of substrate FS-2; read-out: Ki app
# Method: Ki is the inhibition equilibrium constant which indicates the ability of compounds to inhibit the β-secretase activity of memapsin 2 and memapsin 1. […] The K1 value is independent of the substrate, and converted from Ki apparent. The Vi/Vo values depicted in Table 1 were determined at conditions under which the enzyme and inhibitor concentrations were equal (e.g., about 80 nM, 100 nM). […]
Overview of recorded Ki for various compounds
OBSERVED_PROPERTY: Ki (µM)

>>> value_reported("CSC[C@H](NC(=O)[C@@H](NC(=O)OC(C)(C)C)C(C)C)C(=O)N[C@@H](CC(C)C)[C@@H](O)C[C@@H](C)C(=O)N[C@H](C(=O)NCc1ccccc1)C(C)C")
0.0655
>>> value_reported("CSCC[C@H](NC(=O)[C@@H](NC(=O)OC(C)(C)C)C(C)C)C(=O)N[C@@H](CC(C)C)[C@@H](O)C[C@@H](C)C(=O)N[C@@H]1CCCC[C@@H]1O [MMI-057]")
73.3
>>> value_reported("CSCCC(NC(=O)[C@H](CC(C)C)NC(=O)OC(C)(C)C)C(=O)N[C@@H](CC(C)C)[C@@H](O)C[C@@H](C)C(=O)N[C@@H](CC(C)C)C(=O)NCc1ccccc1 (stereo partly drawn)")
0.0828

Value source: patent US20040121947A1
